- target_entity: Bcl-2 protein (Recombinant Human Bcl-2 Protein) (Homo sapiens)
- Construct: purchased Novus NBP2-34889
- Sequence (P10415 whole entry): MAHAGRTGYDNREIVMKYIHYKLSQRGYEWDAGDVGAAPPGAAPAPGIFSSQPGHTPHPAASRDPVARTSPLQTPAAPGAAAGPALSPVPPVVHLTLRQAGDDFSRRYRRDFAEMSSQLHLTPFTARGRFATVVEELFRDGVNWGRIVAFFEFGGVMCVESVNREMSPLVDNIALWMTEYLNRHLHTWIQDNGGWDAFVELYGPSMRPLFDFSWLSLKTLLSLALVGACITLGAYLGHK
- test_method_notes: Binding evaluation of mixture library compounds to Bcl-2 using AS-MS (affinity selection mass spectrometry)
- applied_conditions: AS-MS, mixture of 1200 compounds, Bcl-2; ASMS Ratio(%)=(A−C)/B×100; replicate n = 1
Mark False for ASMS ratio (%) n = 1 values under 0.9%, and True for everything at or above.

Examples with answers:
CCOc1cncc(-c2cc(CN3CCN(c4ccc(C(=O)NCC(F)(F)F)cc4)CC3)cc(OC(C)C)c2)c1
True
CCOc1cncc(-c2ccc(CN3CCN(c4ccc(C(=O)NCC56CC7CC(CC(C7)C5)C6)cc4)CC3)c(OC)c2)c1
False
CCOc1cncc(-c2cc(CN3CCN(c4ccc(C(=O)NCC(F)(F)F)cc4)CC3)cc(OCC)c2)c1
True
CCOc1cncc(-c2ccc(CN3CCN(c4ccc(C(=O)NCC56CC7CC(CC(C7)C5)C6)nn4)CC3)cc2C)c1
True
CCOc1cccc(-c2cc(CN3CCN(c4ccc(C(=O)NCC(F)(F)F)nn4)CC3)cc(OCC)c2)c1
True

Shift focus to the following entry.
**Query** Threshold query (ASMS ratio (%) n = 1 >= 0.9%) on `CCOc1cncc(-c2ccccc2CCC(=O)N2CCN(c3ccc(C(=O)NCC45CC6CC(CC(C6)C4)C5)nn3)CC2)c1`
**Result** False

###

- target_entity: Bcl-2 protein (Recombinant Human Bcl-2 Protein) (Homo sapiens)
- Construct: purchased Novus NBP2-34889
- test_method_notes: Binding evaluation of mixture library compounds to Bcl-2 using AS-MS (affinity selection mass spectrometry)
- applied_conditions: AS-MS on the mixture of 1200 library compounds; ASMS Ratio(%)=(A−C)/B×100; replicate n = 1
Each entry below carries its reported ASMS ratio (%) n = 1.
Form entry: value (%) — number only.

Example compounds with recorded ASMS ratio (%) n = 1:
CCOc1cncc(-c2ccc(C(=O)N3CCN(c4ccc(C(=O)N(C)CC56CC7CC(CC(C7)C5)C6)cc4)CC3)cc2F)c1
9.8
CCOc1cccc(-c2ccc(CN3CCN(c4ccc(C(=O)Nc5ccc(OC)cc5)nn4)CC3)cc2F)c1
4.1
CCOc1cccc(-c2ccc(CN3CCN(c4ccc(C(=O)N(C)CC56CC7CC(CC(C7)C5)C6)cc4)CC3)c(OC)c2)c1
12.5
CCOc1cncc(C#Cc2cncc(C(=O)N3CCN(c4ccc(C(=O)N(C)CC56CC7CC(CC(C7)C5)C6)cc4)CC3)c2)c1
9.1
CCOc1cccc(-c2ccccc2CCC(=O)N2CCN(c3ccc(C(=O)N(CC)CC)cc3)CC2)c1
0.0
CCOc1cncc(-c2ccc(C(=O)N3CCN(c4ccc(C(=O)Nc5ccc(OC)cc5)nn4)CC3)cc2C)c1
2.8

**Query** # get_value(readout='ASMS ratio (%) n = 1', item= `CCOc1cncc(-c2cc(C(=O)N3CCN(c4ccc(C(=O)N(C)CC56CC7CC(CC(C7)C5)C6)nn4)CC3)cc(C(C)(C)C)c2)c1` )
**Result** 2.8

###

- target_entity: Bcl-2 protein (Recombinant Human Bcl-2 Protein) (Homo sapiens)
- Construct: purchased Novus NBP2-34889
- test_method_notes: Binding evaluation of mixture library compounds to Bcl-2 using AS-MS (affinity selection mass spectrometry)
- applied_conditions: AS-MS, mixture library, Bcl-2; replicate n = 2; ASMS Ratio(%)=(A−C)/B×100
reported_metric: ASMS ratio (%) n = 2
Write the number in % without appending the unit.

CCOc1cccc(-c2cc(C(=O)N3CCN(c4ccc(C(=O)NS(C)(=O)=O)nn4)CC3)cc(C(F)(F)F)c2)c1
0.0

**Query** # ASMS ratio (%) n = 2 lookup, item `CCOc1cncc(-c2cc(OC)c(CN3CCN(c4ccc(C(=O)NS(=O)(=O)c5ccc(NCCSc6ccccc6)c([N+](=O)[O-])c5)nn4)CC3)c(OC)c2)c1`
**Result** 0.0

**Query** Which ASMS ratio (%) n = 2 reading was recorded for the compound `CCOc1cncc(-c2ccccc2CN2CCN(c3ccc(C(=O)NS(=O)(=O)CC45CC6CC(CC(C6)C4)C5)nn3)CC2)c1` ?
**Result** 14.7

**Query** Consider the compound shown here: `CCOc1cncc(-c2ccc(CN3CCN(c4ccc(C(=O)NS(=O)(=O)CC56CC7CC(CC(C7)C5)C6)nn4)CC3)c(CC)c2)c1` What is its recorded ASMS ratio (%) n = 2?
**Result** 11.4

**Query** ASMS ratio (%) n = 2 for CCOc1cncc(-c2ccc(C(C)N3CCN(c4ccc(C(=O)NS(=O)(=O)CC56CC7CC(CC(C7)C5)C6)cc4)CC3)c(F)c2)c1 (stereo not shown) ?
**Result** 0.0

**Query** // returns reported ASMS ratio (%) n = 2 for input `CCOc1cccc(-c2csc(CN3CCN(c4ccc(C(=O)N(CC)CC)cc4)CC3)c2)c1`
**Result** −5.5

**Query** # query: ASMS ratio (%) n = 2 of entry `CCOc1cncc(-c2ccc(CN3CCN(c4ccc(C(=O)NS(=O)(=O)CC56CC7CC(CC(C7)C5)C6)cc4)CC3)cc2C)c1`
**Result** 2.1

**Query** Look up ASMS ratio (%) n = 2 for this compound: `CCOc1cncc(C#Cc2ccccc2CN2CCN(c3ccc(C(=O)N(CC)CC)nn3)CC2)c1`
**Result** 0.0

**Query** Quick check: ASMS ratio (%) n = 2 of `CCOc1cncc(-c2cc(C(=O)N3CCN(c4ccc(C(=O)NS(C)(=O)=O)cc4)CC3)cc(C(C)(C)C)c2)c1` ?
**Result** 0.0

**Query** # lookup: ASMS ratio (%) n = 2 of `CCOc1cncc(-c2csc(C(=O)N3CCN(c4ccc(C(=O)NS(=O)(=O)c5ccc(NCCSc6ccccc6)c([N+](=O)[O-])c5)nn4)CC3)c2)c1`
**Result** 17.2
